EXPERIMENTAL_SYSTEM: DRB1*03:01 (Homo sapiens, UniProt P01903+P01911, A100K/A102G/A103R/A169T/F55Y/I96L/K41T/L162R/M171V/P40S/Q125H/Q178H/Q39Y/R42S/S66N/T106N/T262R/W38E/Y61H)
Sequence (P01903 26-254 limits assumed, other chains not shown): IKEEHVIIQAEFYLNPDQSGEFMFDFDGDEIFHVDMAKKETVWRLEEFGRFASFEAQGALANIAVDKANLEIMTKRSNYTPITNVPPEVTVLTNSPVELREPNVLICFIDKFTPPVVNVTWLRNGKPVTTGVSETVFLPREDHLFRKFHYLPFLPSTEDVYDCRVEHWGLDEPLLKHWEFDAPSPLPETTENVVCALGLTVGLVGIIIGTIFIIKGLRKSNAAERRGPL
TEST_DESCRIPTION: biochemical
Where a SMILES comes first, the peptide text is derived from it.
VALUE_TYPE: IC50 (nM)

molecule="CC[C@H](C)[C@H](NC(=O)[C@H](CCC(=O)O)NC(=O)[C@@H](N)CCCCN)C(=O)N[C@H](C(=O)N[C@H](C(=O)N[C@@H](C)C(=O)N[C@H](C(=O)N[C@@H](CO)C(=O)N[C@@H](CCCNC(=N)N)C(=O)N[C@H](C(=O)N[C@@H](CC(C)C)C(=O)N[C@@H](CO)C(=O)N[C@@H](Cc1ccc(O)cc1)C(=O)N[C@@H](Cc1ccc(O)cc1)C(=O)N[C@@H](CCCCN)C(=O)O)[C@@H](C)O)[C@@H](C)O)C(C)C)[C@@H](C)O [Mem_34] (H-KEITVATSRTLSYYK-OH)" value_reported=416

----------
EXPERIMENTAL_SYSTEM: DRB1*07:01 (Homo sapiens, UniProt P01903+P01911, A100R/A102G/A103Q/D57E/D86V/E43K/F76Y/K127E/L162R/M171V/P40G/Q125H/Q99D/R33Q/R42Y/R54Q/S133A/S66F/T210M/V115G/Y107V/Y59L/Y89S)
TEST_DESCRIPTION: biochemical
Where a SMILES comes first, the peptide text is derived from it.
VALUE_TYPE: IC50 (nM)

molecule="CC[C@H](C)[C@H](NC(=O)[C@H](CCC(=O)O)NC(=O)[C@@H](N)CCCCN)C(=O)N[C@H](C(=O)N[C@H](C(=O)N[C@@H](C)C(=O)N[C@H](C(=O)N[C@@H](CO)C(=O)N[C@@H](CCCNC(=N)N)C(=O)N[C@H](C(=O)N[C@@H](CC(C)C)C(=O)N[C@@H](CO)C(=O)N[C@@H](Cc1ccc(O)cc1)C(=O)N[C@@H](Cc1ccc(O)cc1)C(=O)N[C@@H](CCCCN)C(=O)O)[C@@H](C)O)[C@@H](C)O)C(C)C)[C@@H](C)O [Mem_34] (H-KEITVATSRTLSYYK-OH)" value_reported=38
molecule="CC[C@H](C)[C@H](NC(=O)[C@H](CCCNC(=N)N)NC(=O)[C@H](CC(C)C)NC(=O)[C@H](Cc1c[nH]cn1)NC(=O)CNC(=O)[C@@H](N)CCCNC(=N)N)C(=O)N[C@@H](C)C(=O)NCC(=O)N[C@@H](Cc1c[nH]cn1)C(=O)N[C@@H](Cc1c[nH]cn1)C(=O)N[C@@H](CC(C)C)C(=O)NCC(=O)N[C@@H](CCCNC(=N)N)C(=O)N[C@@H](CS)C(=O)N[C@@H](CC(=O)O)C(=O)O [Mem_30] (H-RGHLRIAGHHLGRCD-OH)" value_reported=132
molecule="CC(C)C[C@H](NC(=O)[C@H](Cc1ccc(O)cc1)NC(=O)[C@H](Cc1ccc(O)cc1)NC(=O)[C@H](Cc1ccccc1)NC(=O)[C@H](Cc1ccc(O)cc1)NC(=O)[C@H](Cc1c[nH]c2ccccc12)NC(=O)[C@H](CCCNC(=N)N)NC(=O)[C@@H]1CCCN1)C(=O)NCC(=O)N[C@H](C(=O)NCC(=O)N1CCC[C@H]1C(=O)N[C@@H](CCC(=O)O)C(=O)N[C@@H](C)C(=O)NCC(=O)O)[C@@H](C)O [Ncl_22] (H-PRWYFYYLGTGPEAG-OH)" value_reported=3630
molecule="CSCC[C@H](NC(=O)[C@H](CCCCN)NC(=O)[C@H](CO)NC(=O)[C@H](CCC(=O)O)NC(=O)[C@H](CC(C)C)NC(=O)[C@H](CCC(N)=O)NC(=O)[C@H](CC(N)=O)NC(=O)[C@H](CC(C)C)NC(=O)[C@H](CCCNC(=N)N)NC(=O)[C@H](CC(=O)O)NC(=O)[C@H](CC(C)C)NC(=O)[C@H](CC(C)C)NC(=O)[C@H](CC(C)C)NC(=O)[C@@H](N)CC(C)C)C(=O)N[C@@H](CO)C(=O)O [Ncl_45] (H-LLLLDRLNQLESKMS-OH)" value_reported=12300
molecule="CC[C@H](C)[C@H](NC(=O)CNC(=O)[C@H](CC(=O)O)NC(=O)[C@H](CCCCN)NC(=O)[C@@H](N)CC(N)=O)C(=O)N[C@H](C(=O)N[C@@H](Cc1c[nH]c2ccccc12)C(=O)N[C@H](C(=O)N[C@@H](C)C(=O)N[C@H](C(=O)N[C@@H](CCC(=O)O)C(=O)NCC(=O)N[C@@H](C)C(=O)N[C@@H](CC(C)C)C(=O)N[C@@H](CC(N)=O)C(=O)O)[C@@H](C)O)C(C)C)[C@@H](C)CC [Ncl_26] (H-NKDGIIWVATEGALN-OH)" value_reported=219

----------
EXPERIMENTAL_SYSTEM: DRB1*09:01 (Homo sapiens, UniProt P01903+P01911, A100R/A103E/D57H/D86V/F55Y/F60I/F76Y/I96F/K127E/L162R/M171V/P40D/Q125H/Q99R/R33Q/R42F/S133A/S66N/T210M/V115G/W38K/Y107V/Y59G/Y89S)
TEST_DESCRIPTION: biochemical
Where a SMILES comes first, the peptide text is derived from it.
VALUE_TYPE: IC50 (nM)

compound="CC[C@H](C)[C@H](NC(=O)CNC(=O)[C@H](CC(=O)O)NC(=O)[C@H](CCCCN)NC(=O)[C@H](CC(N)=O)NC(=O)[C@H](C)NC(=O)CNC(=O)[C@H](Cc1ccc(O)cc1)NC(=O)[C@@H]1CCCN1C(=O)[C@@H](N)CC(C)C)C(=O)N[C@H](C(=O)N[C@@H](Cc1c[nH]c2ccccc12)C(=O)N[C@H](C(=O)N[C@@H](C)C(=O)N[C@H](C(=O)O)[C@@H](C)O)C(C)C)[C@@H](C)CC [Ncl_25] (H-LPYGANKDGIIWVAT-OH)" value_type=IC50 value_reported=3830
compound="CC[C@H](C)[C@H](NC(=O)CNC(=O)[C@H](CC(=O)O)NC(=O)[C@H](CCCCN)NC(=O)[C@@H](N)CC(N)=O)C(=O)N[C@H](C(=O)N[C@@H](Cc1c[nH]c2ccccc12)C(=O)N[C@H](C(=O)N[C@@H](C)C(=O)N[C@H](C(=O)N[C@@H](CCC(=O)O)C(=O)NCC(=O)N[C@@H](C)C(=O)N[C@@H](CC(C)C)C(=O)N[C@@H](CC(N)=O)C(=O)O)[C@@H](C)O)C(C)C)[C@@H](C)CC [Ncl_26] (H-NKDGIIWVATEGALN-OH)" value_type=IC50 value_reported=141
compound="CC[C@H](C)[C@H](NC(=O)[C@H](CCC(=O)O)NC(=O)[C@@H](N)CCCCN)C(=O)N[C@H](C(=O)N[C@H](C(=O)N[C@@H](C)C(=O)N[C@H](C(=O)N[C@@H](CO)C(=O)N[C@@H](CCCNC(=N)N)C(=O)N[C@H](C(=O)N[C@@H](CC(C)C)C(=O)N[C@@H](CO)C(=O)N[C@@H](Cc1ccc(O)cc1)C(=O)N[C@@H](Cc1ccc(O)cc1)C(=O)N[C@@H](CCCCN)C(=O)O)[C@@H](C)O)[C@@H](C)O)C(C)C)[C@@H](C)O [Mem_34] (H-KEITVATSRTLSYYK-OH)" value_type=IC50 value_reported=17
compound="CC(C)C[C@H](NC(=O)[C@H](CC(N)=O)NC(=O)[C@H](CCCCN)NC(=O)[C@@H](NC(=O)[C@H](CCCNC(=N)N)NC(=O)[C@H](CO)NC(=O)[C@H](Cc1ccc(O)cc1)NC(=O)[C@@H](NC(=O)[C@H](Cc1ccc(O)cc1)NC(=O)[C@H](Cc1ccccc1)NC(=O)[C@H](CO)NC(=O)[C@@H]1CCCN1C(=O)[C@H](CCCCN)NC(=O)[C@@H](NC(=O)[C@@H](N)CC(C)C)C(C)C)C(C)C)C(C)C)C(=O)O [Env_11] (H-LVKPSFYVYSRVKNL-OH)" value_type=IC50 value_reported=52
compound="CC(C)C[C@H](NC(=O)[C@H](CCC(N)=O)NC(=O)[C@H](CC(N)=O)NC(=O)[C@H](CC(C)C)NC(=O)[C@H](CCCNC(=N)N)NC(=O)[C@H](CC(=O)O)NC(=O)[C@H](CC(C)C)NC(=O)[C@H](CC(C)C)NC(=O)[C@H](CC(C)C)NC(=O)[C@H](CC(C)C)NC(=O)[C@H](C)NC(=O)[C@H](CC(C)C)NC(=O)[C@H](C)NC(=O)[C@H](C)NC(=O)[C@@H](N)CC(=O)O)C(=O)O [Ncl_44] (H-DAALALLLLDRLNQL-OH)" value_type=IC50 value_reported=12500
